target: FLuc-C-HiBiT (firefly luciferase) (Photinus pyralis, UniProt P08659, form not given/L550V); assay: SDR assay, FLuc-C-HiBiT; conditions: + ATP; SDR max. response; clade S
Sequence (P08659 2-550 L550V, form open): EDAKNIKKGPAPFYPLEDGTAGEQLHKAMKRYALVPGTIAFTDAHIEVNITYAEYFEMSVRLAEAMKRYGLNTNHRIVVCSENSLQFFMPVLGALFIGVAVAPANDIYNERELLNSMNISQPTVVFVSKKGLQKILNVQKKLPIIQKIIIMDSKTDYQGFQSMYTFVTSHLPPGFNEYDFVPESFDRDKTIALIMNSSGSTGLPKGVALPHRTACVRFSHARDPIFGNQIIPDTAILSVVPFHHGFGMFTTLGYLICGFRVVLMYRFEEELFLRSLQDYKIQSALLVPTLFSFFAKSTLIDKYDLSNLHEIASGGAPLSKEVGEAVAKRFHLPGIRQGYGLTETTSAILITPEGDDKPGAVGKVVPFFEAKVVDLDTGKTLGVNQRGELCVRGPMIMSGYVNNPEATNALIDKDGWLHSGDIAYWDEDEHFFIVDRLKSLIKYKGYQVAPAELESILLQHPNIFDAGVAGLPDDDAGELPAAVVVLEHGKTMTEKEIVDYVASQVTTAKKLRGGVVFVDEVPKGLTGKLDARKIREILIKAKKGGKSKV
Here the recorded % Activity (max response, + ATP) is given for each entry.
observable: % Activity (max response, + ATP) (%)

>>> assay_value("O=C(NCc1cccs1)C1CCN(C(=O)c2ncn3c2COC(c2ccccc2)C3)CC1 (stereo not shown) [NCGC00449792-01]")
209.49
>>> assay_value("CCCCNC(=O)C1CCN(C(=O)c2ncn3c2COC(c2ccccc2)C3)CC1 (stereo not shown) [NCGC00449772-01]")
357.97
>>> assay_value("COc1cccc(CNC(=O)C2CCN(C(=O)c3ncn4c3COC(c3ccccc3)C4)CC2)c1 (stereo not shown) [NCGC00449777-01]")
322.03
>>> assay_value("CC(CNC(=O)C1CCN(C(=O)c2ncn3c2COC(c2ccc(F)cc2)C3)CC1)c1ccccc1 (stereo not shown) [NCGC00449827-01]")
15.49
>>> assay_value("O=C(NCc1cccc(F)c1)C1CCN(C(=O)c2ncn3c2COC(c2ccc(F)cc2)C3)CC1 (stereo not shown) [NCGC00449837-01]")
75.17
>>> assay_value("Cc1cc(C)cc(NC(=O)C2CCN(C(=O)c3ncn4c3COC(c3ccccc3)C4)CC2)c1 (stereo not shown) [NCGC00449905-01]")
375.38
>>> assay_value("COc1ccc(C2Cn3cnc(C(=O)N4CCC(C(=O)NCC5CCCCC5)CC4)c3CO2)cc1 (stereo not shown) [NCGC00449872-01]")
0.00
>>> assay_value("O=C(Nc1ccccc1)C1CCN(C(=O)c2ncn3c2COC(c2ccccc2)C3)CC1 (stereo not shown) [NCGC00449901-01]")
354.42
>>> assay_value("O=C(NCc1ccccc1Cl)C1CCN(C(=O)c2ncn3c2COC(c2ccccc2)C3)CC1 (stereo not shown) [NCGC00449786-01]")
336.94
>>> assay_value("COc1ccc(C2Cn3cnc(C(=O)N4CCC(C(=O)NC5CCCCCC5)CC4)c3CO2)cc1 (stereo not shown) [NCGC00449862-01]")
0.00
>>> assay_value("O=C(Nc1cccc(F)c1)C1CCN(C(=O)c2ncn3c2COC(c2ccccc2)C3)CC1 (stereo not shown) [NCGC00449914-01]")
387.59
>>> assay_value("COCCCNC(=O)C1CCN(C(=O)c2ncn3c2COC(c2ccc(OC)cc2)C3)CC1 (stereo not shown) [NCGC00449877-01]")
0.00
>>> assay_value("O=C(NCC1CC1)C1CCN(C(=O)c2ncn3c2COC(c2ccccc2)C3)CC1 (stereo not shown) [NCGC00449799-01]")
355.70
>>> assay_value("O=C(NCc1cccc(Cl)c1)C1CCN(C(=O)c2ncn3c2COC(c2ccccc2)C3)CC1 (stereo not shown) [NCGC00449787-01]")
263.69
>>> assay_value("CC(CNC(=O)C1CCN(C(=O)c2ncn3c2COC(c2ccccc2)C3)CC1)c1ccccc1 (stereo not shown) [compound 00449795]")
349.21
>>> assay_value("CCOc1ccc(NC(=O)C2CCN(C(=O)c3ncn4c3COC(c3ccccc3)C4)CC2)cc1 (stereo not shown) [NCGC00449913-01]")
212.53

Source: paper PMC12064818
